molecular target: PPAR Alpha (Homo sapiens, UniProt Q07869); experiment: PathHunter NHR protein interaction / nuclear translocation agonist test, PPAR Alpha; format: cell-based; details: read-out: PPAR Alpha Maximum Activation Response %
Sequence (Q07869 whole entry): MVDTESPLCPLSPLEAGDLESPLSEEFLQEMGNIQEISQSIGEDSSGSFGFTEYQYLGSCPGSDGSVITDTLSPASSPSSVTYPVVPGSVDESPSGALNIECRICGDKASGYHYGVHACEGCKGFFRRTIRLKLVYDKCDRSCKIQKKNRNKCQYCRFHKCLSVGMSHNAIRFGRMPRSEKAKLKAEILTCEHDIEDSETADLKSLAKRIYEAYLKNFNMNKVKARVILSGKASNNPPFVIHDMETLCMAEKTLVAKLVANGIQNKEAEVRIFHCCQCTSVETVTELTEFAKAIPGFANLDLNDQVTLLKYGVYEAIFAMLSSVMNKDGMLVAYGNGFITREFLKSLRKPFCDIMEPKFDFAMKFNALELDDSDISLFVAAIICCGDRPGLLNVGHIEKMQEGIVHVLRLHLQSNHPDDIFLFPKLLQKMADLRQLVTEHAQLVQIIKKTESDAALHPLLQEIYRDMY
Property: Emax; scope: individual compounds
Property Measured: Emax

{"columns": ["Compound", "Property Measured", "Result"],
 "data": [
  ["CSc1ccc(C(=O)[C@H]2CNC[C@@H]2CCc2cc(C)c(OC(C)(C)C(=O)O)c(C)c2)cc1 (racemic) [Compound 56]", "Emax", "< 50%"],
  ["CSc1ccc(C(=O)C2CN(C(=O)Oc3ccc(Cl)cc3)CC2Cc2cc(C)c(OC(C)(C)C(=O)O)c(C)c2)cc1 (single isomer, unassigned) [Compound 27]", "Emax", "80 to 100%"],
  ["CSc1ccc(C(=O)C2CN(C(=O)Oc3cccc(Cl)c3)CC2c2cc(C)c(OC(C)(C)C(=O)O)c(C)c2)cc1 (single isomer, unassigned) [Compound 38]", "Emax", "80 to 100%"],
  ["Cc1cc(CC2CN(C(=O)Oc3ccccc3)CC2C(=O)c2ccc(Cl)cc2)cc(C)c1OC(C)(C)C(=O)O (single isomer, unassigned) [Compound 70]", "Emax", "80 to 100%"],
  ["CSc1ccc(C(=O)[C@H]2CN(C(=O)OC3CCC(C)CC3)C[C@@H]2Cc2cc(C)c(OC(C)(C)C(=O)O)c(C)c2)cc1 (mixture of isomers) [Compound 54]", "Emax", "80 to 100%"],
  ["CSc1ccc(C(=O)C2CN(C(=O)Oc3ccccc3)CC2CCc2ccc(OC(C)(C)C(=O)O)cc2)cc1 (single isomer, unassigned) [Compound 80]", "Emax", "80 to 100%"]
]}
